Please go through the items and note down their Cell viability.
# System: Raji
# protocolDescription: Inhibition of TPA-induced EBV-early antigen activation in human Raji cells assessed as cell viability at 1000 molar ratio per TPA after 48 hrs by trypan blue staining method
# Type: cell-based
# settings: human gammaherpesvirus 4

>  <structureString>
CC(=O)O[C@H]1[C@H](OC(=O)c2ccccc2)[C@@]2(C)[C@@H](OC(=O)/C=C/c3ccccc3)[C@@H](O)[C@@H]3[C@@H](O)[C@]2(OC3(C)C)[C@@](C)(O)[C@H]1OC(C)=O

>  <Cell viability>
> 60%

$$$$
>  <structureString>
CC(=O)O[C@H]1[C@H](OC(=O)c2ccccc2)C[C@](C)(O)[C@]23OC(C)(C)[C@H](C[C@H](OC(=O)c4ccco4)[C@]12C)[C@H]3OC(=O)c1ccccc1

>  <Cell viability>
> 60%

$$$$

API: the following record is the query input.
[Q] Tell me the measured Cell viability of CC(=O)O[C@@H]1[C@H](OC(C)=O)[C@@H](C)[C@@]23C[C@@H](C[C@H](OC(=O)c4ccccc4)[C@]2(C)[C@H]1OC(=O)c1ccco1)C(C)(C)O3 , please.
[A] > 60%

----------
Assign Cell viability to each entry below.
# System: Raji
# protocolDescription: Inhibition of TPA-induced EBV-early antigen activation in human Raji cells assessed as cell viability at 1000 molar ratio per TPA after 48 hrs by trypan blue staining method
# Assay type: cell-based
# settings: human gammaherpesvirus 4

The following molecules have reported results that may help.
>  <structureString>
CC(=O)O[C@@H]1[C@H](O)[C@@H](C)[C@]23OC(C)(C)[C@H](C[C@H](OC(=O)/C=C/c4ccccc4)[C@]2(C)[C@H]1OC(=O)c1ccccc1)[C@H]3O

>  <endpointResult>
> 60%

$$$$
>  <structureString>
CC(=O)O[C@@H]1[C@H](O)[C@@H](C)[C@]23OC(C)(C)[C@H]([C@H](OC(C)=O)[C@H](OC(=O)c4ccccc4)[C@]2(C)[C@H]1OC(=O)c1ccccc1)[C@H]3O

>  <endpointResult>
> 60%

$$$$

Attention now turns to another entry.
[Q] // lookup Cell viability for CC1(C)O[C@]23C[C@H]1C[C@H](OC(=O)c1ccccc1)[C@]2(C)[C@@H](OC(=O)c1ccco1)CC[C@]3(C)O
[A] > 60%

----------
Field: Cell viability. Provide a value for each of the molecules that follow.
# System: Raji
# protocolDescription: Inhibition of TPA-induced EBV-early antigen activation in human Raji cells assessed as cell viability at 1000 molar ratio per TPA after 48 hrs by trypan blue staining method
# Type: cell-based
# settings: human gammaherpesvirus 4

Past entries and their recorded results:
>  <structureString>
CC(=O)O[C@@H]1[C@H](O)[C@@H](C)[C@]23OC(C)(C)[C@H](C[C@H](OC(=O)c4ccccc4)[C@]2(C)[C@H]1OC(=O)c1ccccc1)[C@H]3OC(C)=O

>  <systemUnderTest>
Raji

>  <measurementLabel>
Cell viability

>  <endpointResult>
> 60%

$$$$
>  <structureString>
CC(=O)O[C@@H]1[C@H](O)[C@@H](C)[C@]23OC(C)(C)[C@H]([C@H](OC(C)=O)[C@H](OC(=O)c4ccccc4)[C@]2(C)[C@H]1OC(=O)c1ccoc1)[C@H]3OC(C)=O

>  <systemUnderTest>
Raji

>  <measurementLabel>
Cell viability

>  <endpointResult>
> 60%

$$$$

Continue with the molecule presented below.
[Q] Value lookup for Cell viability; key = CC(=O)O[C@H]1[C@H](OC(=O)c2ccccc2)[C@@]2(C)[C@@H](OC(=O)/C=C/c3ccccc3)[C@@H](O)[C@@H]3[C@@H](OC(C)=O)[C@]2(OC3(C)C)[C@@](C)(O)[C@H]1OC(C)=O
[A] > 60%

From: ChEMBL document CHEMBL3868585
